The measurements presented in this section are drawn from PubChem BioAssay (NCI).

Listing: growth of selected molecules
- Tested on: M14 melanoma
- Assay Text: NCI-60 one-dose screen, 48 h (100 = growth as untreated, 0 = no growth, -100 = all killed)
- Particulars: 10 µM
- Method: Growth inhibition of the M14 human tumor cell line is measured as a screen for anti-cancer activity. Cells are grown in 96 well plates and exposed to the test compound for 48 hours. Compounds are tested at a single concentration, which is 10^-5 M for most compounds. The reported endpoint is percent growth (GI% or GIPRCNT), where numbers from 0 - 100% represent growth inhibition, and numbers from -100% - 0 represent cell death. For example, a value of 40 represents 60% growth inhibition. […]
Compounds without any hit were thinned out: in the full panel of roughly 83,000, 20% have a hit.

Smiles: CC/C(=C(\c1ccc(O)cc1)c1ccc(OCCN(C)C(=O)COCCNC(=O)Cc2ccc3c(c2)CN([C@@H]2CCC(=O)NC2=O)C3=O)cc1)c1ccccc1
Units Of Measure: %
growth: 68.9
//
Smiles: CC/C(=C(/c1ccc(O)cc1)c1ccc(OCCN(C)C(=O)COCCOCCNC(=O)c2ccc3c(c2)CN([C@@H]2CCC(=O)NC2=O)C3=O)cc1)c1ccccc1
Units Of Measure: %
growth: 92
//
Smiles: CC/C(=C(\c1ccc(O)cc1)c1ccc(OCCNC)cc1)c1ccccc1
Units Of Measure: %
growth: -18.8
//
Smiles: CC/C(=C(/c1ccc(O)cc1)c1ccc(OCCN(C)C(=O)COCCOCCNC(=O)Cc2ccc3c(c2)CN([C@@H]2CCC(=O)NC2=O)C3=O)cc1)c1ccccc1
Units Of Measure: %
growth: 65.4
